- study target: Artificial Cell Surface (ACS): biotinylated cell surface proteins from mononuclear cells coupled to streptavidin-sepharose
- assay procedure: adsorption on ACS column, MALDI-TOF MS
No end group written: not given here.
Classify as follows. Reported Percent Absorbed greater than or equal to 40%: label 1. Reported Percent Absorbed below: label 0.

Is Percent Absorbed for DETYVPKEFNAETFTHA [Asp-N-generated albumin fragment SEQ ID NO: 220] at or above 40%? label 1

Is Percent Absorbed for QEPERNECFLQHK (not fully specified) [trypsin-generated albumin fragment SEQ ID NO: 211 …] at or above 40%? label 0

Is Percent Absorbed for VHTECCHGDLLECADDR [trypsin-generated albumin fragment SEQ ID NO: 212 …] at or above 40%? label 0

Is Percent Absorbed for VFDEFKPLVEEPQNLIK [trypsin-generated albumin fragment SEQ ID NO: 196 …] at or above 40%? label 1

Is Percent Absorbed for DRVTKCCTESLVNRRPCFSALEV [Asp-N-generated albumin fragment SEQ ID NO: 219] at or above 40%? label 1

Is Percent Absorbed for AVMDDFAAFVEK [trypsin-generated albumin fragment SEQ ID NO: 208 …] at or above 40%? label 0

Is Percent Absorbed for YLYEIAR [trypsin-generated albumin fragment SEQ ID NO: 203 YLYEIAR] at or above 40%? label 0

Is Percent Absorbed for AAFTECCQAADK [trypsin-generated albumin fragment SEQ ID NO: 205 …] at or above 40%? label 0

Is Percent Absorbed for YLSVVLNQLCVLHEKTPVSDRVTKCCCTESLVNRRPFSALEV [Asp-N-generated albumin fragment SEQ ID NO: 230] at or above 40%? label 0

Is Percent Absorbed for QEPERNECFLQHK (not fully specified) [trypsin-generated albumin fragment SEQ ID NO: 207 …] at or above 40%? label 0

Is Percent Absorbed for SLHTLFGDK [trypsin-generated albumin fragment SEQ ID NO: 200 …] at or above 40%? label 0

Is Percent Absorbed for LAKYICENQDSISSKLKECCEKPLLEKHCIAEVEN [Asp-N-generated albumin fragment SEQ ID NO: 226] at or above 40%? label 1

Is Percent Absorbed for RVTKCCTESLVNRRPCFSALEVDETYVPKEFNAETFTFHA [Asp-N-generated albumin fragment SEQ ID NO: 229] at or above 40%? label 1

Is Percent Absorbed for LDELRDEGK [trypsin-generated albumin fragment SEQ ID NO: 215 …] at or above 40%? label 0

Is Percent Absorbed for VPQVSTPTLVEVSR [trypsin-generated albumin fragment SEQ ID NO: 197 …] at or above 40%? label 1

Recorded values, source patent US20170298096A1.
